# EXPERIMENTAL_SYSTEM: PHD2 enzyme (residues 181-417) (Homo sapiens (Human))
# TEST_METHOD_NOTES: Inhibition of PHD enzyme (LC/MS peptide hydroxylation assay)
# Type: biochemical
# EXPERIMENTAL_CONDITIONS: PHD2 (residues 181-417) 5 nM, 60 min pre-incubation; -log(IC50), IC50 molar
MEASURED_PROPERTY: PHD Inhibition (pIC50)
Reply: number alone, nothing else.

Exercise: Can you look up PHD Inhibition (pIC50) on PHD2 enzyme (residues 181-417) (Homo sapiens (Human)) for COC[C@H]1CCC[C@H]1NC(=O)c1ccc(-n2ncc(-c3ccnc(OC)c3)c2O)nc1 ?
Key: 8

Exercise: What measured PHD Inhibition (pIC50) is associated with COCCCNC(=O)c1ccc(-n2ncc(-c3ccc(=O)n(C)c3)c2O)nc1 on PHD2 enzyme (residues 181-417) (Homo sapiens (Human))?
Key: 7.1

Exercise: PHD Inhibition (pIC50) of N#Cc1ccc(-c2cnn(-c3ccc(C(=O)N[C@H]4CC[C@@H](O)CC4)cn3)c2O)cc1 on PHD2 enzyme (residues 181-417) (Homo sapiens (Human))?
Key: 7.5

Exercise: So what PHD Inhibition (pIC50) did CCN(C)[C@H]1CCCN(C(=O)c2ccc(-n3ncc(-c4ccc(C#N)cc4C)c3O)nc2)C1 get with PHD2 enzyme (residues 181-417) (Homo sapiens (Human))?
Key: 7.93

Exercise: Request: PHD Inhibition (pIC50), test system PHD2 enzyme (residues 181-417) (Homo sapiens (Human)), entry CCN1CCC(NC(=O)c2ccc(-n3ncc(-c4ccnc(OC)c4)c3O)nc2)CC1
Key: 7.4

Exercise: Missing value: PHD Inhibition (pIC50), PHD2 enzyme (residues 181-417) (Homo sapiens (Human)), entry CN1CCC2(CCN(C(=O)c3ccc(-n4ncc(-c5ccc(C#N)cc5)c4O)nc3)C2)C1 (centres unmarked) . Fill in?
Key: 7.26

Exercise: What is its PHD Inhibition (pIC50) for PHD2 enzyme (residues 181-417) (Homo sapiens (Human))? Entry: CC[C@H](C)NC(=O)c1ccc(-n2ncc(-c3ccc(C#N)cc3)c2O)nc1
Key: 7.66

Exercise: So what PHD Inhibition (pIC50) did CO[C@H]1CC[C@@H](NC(=O)c2ccc(-n3ncc(-c4ccc(C#N)cc4)c3O)nc2)CC1 get with PHD2 enzyme (residues 181-417) (Homo sapiens (Human))?
Key: 7.38

Exercise: # get_value(readout= PHD Inhibition (pIC50), system= PHD2 enzyme (residues 181-417) (Homo sapiens (Human))) for Cc1c(-c2cnn(-c3ccc(C(=O)N4CCN(C)CC4)cn3)c2O)ccc(C#N)c1F
Key: 8.26

Exercise: // lookup PHD Inhibition (pIC50) | system=PHD2 enzyme (residues 181-417) (Homo sapiens (Human)) | key= N#Cc1ccc(-c2cnn(-c3ccc(C(=O)N[C@H]4CCNC4)cn3)c2O)cc1
Key: 7.2

Exercise: Reported PHD Inhibition (pIC50) for PHD2 enzyme (residues 181-417) (Homo sapiens (Human)), given COc1cc(C#N)ccc1-c1cnn(-c2ccc(C(=O)N[C@H]3CC[C@@H](OC)CC3)cn2)c1O ?
Key: 6.83

Exercise: # query: PHD Inhibition (pIC50) | item Cc1cc(C#N)ccc1-c1cnn(-c2ccc(C(=O)N(C3CC3)C3CCN(C)CC3)cn2)c1O | system: PHD2 enzyme (residues 181-417) (Homo sapiens (Human))
Key: 7.87

Exercise: Value wanted: PHD Inhibition (pIC50) (PHD2 enzyme (residues 181-417) (Homo sapiens (Human))) of entry N#Cc1ccc(-c2cnn(-c3ccc(C(=O)NC4CCCCC4)cn3)c2O)cc1
Key: 7.28

Exercise: Request: PHD Inhibition (pIC50), test system PHD2 enzyme (residues 181-417) (Homo sapiens (Human)), entry COCC(C)CNC(=O)c1ccc(-n2ncc(-c3ccc(C#N)cc3C)c2O)nc1 (centres unmarked)
Key: 8.1

Exercise: Form field: PHD Inhibition (pIC50) recorded for COCCC1(NC(=O)c2ccc(-n3ncc(-c4ccc(C#N)cc4)c3O)nc2)CCCC1 with PHD2 enzyme (residues 181-417) (Homo sapiens (Human)) (enter value)
Key: 8.36

Exercise: Value wanted: PHD Inhibition (pIC50) (PHD2 enzyme (residues 181-417) (Homo sapiens (Human))) of entry CCCNC(=O)c1ccc(-n2ncc(-c3ccc(C#N)cc3)c2O)nc1
Key: 7.36

Exercise: Entry Cc1cc(C#N)ccc1-c1cnn(-c2ccc(C(=O)NCCCN(C)C)cn2)c1O , system PHD2 enzyme (residues 181-417) (Homo sapiens (Human)): what PHD Inhibition (pIC50) was measured?
Key: 7.9

====

# EXPERIMENTAL_SYSTEM: PHD2 enzyme (residues 181-417) (Homo sapiens (Human))
# TEST_METHOD_NOTES: Inhibition of PHD enzyme (LC/MS peptide hydroxylation assay)
# Type: biochemical
# EXPERIMENTAL_CONDITIONS: PHD2 (residues 181-417) 5 nM, 60 min pre-incubation; -log(IC50), IC50 molar; read-out: PHD Inhibition (pIC50) (converted)
# if measured IC50 < 10 nM: yes (1)  # else: no (0)

Past entries and their recorded results:
COMPOUND	ASSIGNED_LABEL
Cc1cc(C#N)ccc1-c1cnn(-c2ccc(C(=O)N3CCN(C(C)C)[C@@H](C)C3)cn2)c1O [Example 393]	no (0)
COCCCNC(=O)c1ccc(-n2ncc(-c3cc(C)nc(OC)c3)c2O)nc1 [Example 214]	no (0)
COc1cc(-c2cnn(-c3ccc(C(=O)NCCCO)cn3)c2O)ccn1 [Example 26]	no (0)
CCN(C)CC1CCN(C(=O)c2ccc(-n3ncc(-c4ccc(C#N)cc4C)c3O)nc2)C1 (racemic) [Example 295]	no (0)

For the next question, use this compound.
Exercise: Would you kindly verify if IC50 of Cc1cc(C#N)ccc1-c1cnn(-c2ccc(C(=O)N3CCN4CCCC4C3)cn2)c1O (racemic) [Example 288] is strictly less than 10 nM?
Key: yes (1)

====

# EXPERIMENTAL_SYSTEM: PHD2 enzyme (residues 181-417) (Homo sapiens (Human), UniProt Q9GZT9)
# Sequence (Q9GZT9 181-417): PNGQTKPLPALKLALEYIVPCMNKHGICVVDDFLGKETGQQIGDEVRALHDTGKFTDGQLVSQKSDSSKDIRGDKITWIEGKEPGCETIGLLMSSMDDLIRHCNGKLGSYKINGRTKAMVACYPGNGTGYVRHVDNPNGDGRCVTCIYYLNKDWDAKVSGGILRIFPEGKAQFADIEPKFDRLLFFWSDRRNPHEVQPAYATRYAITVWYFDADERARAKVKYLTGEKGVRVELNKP
# TEST_METHOD_NOTES: Inhibition of PHD enzyme (LC/MS peptide hydroxylation assay)
# Assay type: biochemical
# EXPERIMENTAL_CONDITIONS: PHD2 (residues 181-417) 5 nM, 60 min pre-incubation; -log(IC50), IC50 molar
Entries and their measured PHD Inhibition (pIC50) follow.
Quick one: just the number, no unit, thanks!

Reference set (4 entries):
MOLECULE	PHD Inhibition (pIC50)
COCCCNC(=O)c1ccc(-n2ncc(-c3ccc(CC#N)c(F)c3)c2O)nc1	8.2
Cc1cc(C#N)ccc1-c1cnn(-c2ccc(C(=O)NCC3CCOCC3)cn2)c1O	7.25
CCN1CCN(C(=O)c2ccc(-n3ncc(-c4ccc(C#N)c(F)c4C)c3O)nc2)C[C@@H]1C	8.39
Cc1cc(C#N)ccc1-c1cnn(-c2ccc(C(=O)NCC3CCCO3)cn2)c1O (centres unmarked)	7.17

Exercise: Given Cc1cc(C#N)ccc1-c1cnn(-c2ccc(C(=O)NCCC3CCOCC3)cn2)c1O , state its recorded PHD Inhibition (pIC50).
Key: 7.25

Exercise: Consider the molecule COCC1(CNC(=O)c2ccc(-n3ncc(-c4ccc(C#N)cc4C)c3O)nc2)CC1 and give its measured PHD Inhibition (pIC50).
Key: 7.15

Exercise: For CN(C)CCCNC(=O)c1ccc(-n2ncc(-c3ccc(C#N)cc3)c2O)nc1 , what is its reported PHD Inhibition (pIC50)?
Key: 6.82

Exercise: Would you mind telling me what PHD Inhibition (pIC50) value was observed for O=C(NCc1ccccc1)c1ccc(-n2ncc(-n3ccccc3=O)c2O)nc1 ?
Key: 7.57

====

# EXPERIMENTAL_SYSTEM: PHD2 enzyme (residues 181-417) (Homo sapiens (Human))
# TEST_METHOD_NOTES: Inhibition of PHD enzyme (LC/MS peptide hydroxylation assay)
# Format: biochemical
# EXPERIMENTAL_CONDITIONS: PHD2 (residues 181-417) 5 nM, 60 min pre-incubation; -log(IC50), IC50 molar
Measured PHD Inhibition (pIC50), listed per entry.
Answer using only a numeral; do not append any unit.

Solved entries:
COMPOUND	PHD Inhibition (pIC50)
Cc1cc(C#N)ccc1-c1cnn(-c2ccc(C(=O)NC3CCN(C)CC3)cn2)c1O [Example 100]	8.1
COc1cc(-c2cnn(-c3ccc(C(=O)NC4CCC4)cn3)c2O)ccn1 [Example 13]	7.15
COCCC1(NC(=O)c2ccc(-n3ncc(-c4ccc(C#N)cc4F)c3O)nc2)CC1 [Example 210]	8.3
N#Cc1ccc(-c2cnn(-c3ccc(C(=O)NCCC4CCOC4)cn3)c2O)cc1 (centres unmarked) [Example 177]	7.64
Cc1c(-c2cnn(-c3ccc(C(=O)N4CCN5CCC[C@@H]5C4)cn3)c2O)ccc(C#N)c1F [Example 334]	8.50

Exercise: Find the recorded PHD Inhibition (pIC50) belonging to COCC[C@@H](C)NC(=O)c1ccc(-n2ncc(-c3ccc(C#N)cc3)c2O)nc1 [Example 357] and report it.
Key: 8.46

Exercise: // returns reported PHD Inhibition (pIC50) for input COc1cc(-c2cnn(-c3ccc(C(=O)NCCOC(C)C)cn3)c2O)ccn1 [Example 7]
Key: 7.03

Exercise: Sample N#Cc1ccc(-c2cnn(-c3ccc(C(=O)NCCCn4cccn4)cn3)c2O)cc1 [Example 117] — what was its PHD Inhibition (pIC50)?
Key: 7.44
